# Tgt: Aromatase (Homo sapiens, UniProt P11511)
# Sequence (P11511 whole entry): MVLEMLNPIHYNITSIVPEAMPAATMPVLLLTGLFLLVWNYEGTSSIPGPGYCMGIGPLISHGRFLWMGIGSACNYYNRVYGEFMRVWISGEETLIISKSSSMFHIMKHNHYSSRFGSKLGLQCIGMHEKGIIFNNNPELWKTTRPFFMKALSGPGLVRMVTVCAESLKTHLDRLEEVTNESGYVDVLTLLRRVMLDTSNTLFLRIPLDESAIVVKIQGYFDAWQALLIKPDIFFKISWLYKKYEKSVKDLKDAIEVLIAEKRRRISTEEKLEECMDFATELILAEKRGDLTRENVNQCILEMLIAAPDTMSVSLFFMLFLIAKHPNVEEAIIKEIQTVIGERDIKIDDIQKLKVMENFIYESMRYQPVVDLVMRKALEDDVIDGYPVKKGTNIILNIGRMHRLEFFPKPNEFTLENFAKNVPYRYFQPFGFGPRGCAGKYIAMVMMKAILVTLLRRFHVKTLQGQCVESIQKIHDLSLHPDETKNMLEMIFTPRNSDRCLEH
# Run Description: Percent inhibition at 2 uM against aromatase protein from human placental microsomes using [1-beta-3H]-androstenedione
Metric: inhibition at 2 µM

Ask: # inhibition at 2 µM lookup, item C[C@]12CCC3C(CC[C@H]4C(=O)[C@H](O)CC[C@]34C)C1CCC(=O)O2 (stereo partly drawn)
Reply: 16.6%

Ask: Can you handle C[C@]12CCC3C(CC[C@@]4(C=O)OC(=O)CC[C@]34C)C1CCC2=O (stereo partly drawn) next?
Reply: 11%

Ask: Can you handle C[C@]12CCC(=O)C(O)=C1CC[C@@H]1[C@@H]2CC[C@]2(C)C(=O)CC[C@@H]12 [FORMESTANE] next?
Reply: 99.1%

Ask: Can you handle C[C@]12CCC3C(CC[C@H]4C=CCC[C@]34C)C1CCC2=O (stereo partly drawn) next?
Reply: 95.9%

Ask: Can you handle C[C@]12CCC(=O)C(O)=C1CCC1C2CC[C@]2(C)OC(=O)CCC12 (stereo partly drawn) next?
Reply: 72.5%

Ask: Can you handle C[C@]12CCC3C(CC[C@@H]4[C@H]5O[C@H]5CC[C@]34C)C1CCC2=O (stereo partly drawn) next?
Reply: 14.6%

Ask: Can you handle C[C@]12CCC3C(CC[C@H]4C(O)(C#N)[C@H](O)CC[C@]34C)C1CCC(=O)O2 (stereo partly drawn) next?
Reply: 17.6%

Ask: Can you handle `C[C@]12CC[C@@H](O)[C@H](O)[C@@H]1CC[C@@H]1[C@@H]2CC[C@]2(C)C(=O)CC[C@@H]12` next?
Reply: 34.6%
